Target: ABL T315I BAF3 cells (Homo sapiens, UniProt P00519, T315I, cells depend on it)
Construct: ABL T315I BAF3; fused on or other part: P11274 (Breakpoint cluster region protein)
Test: 96-well XTT cell survival assay, BaF3 ABL T315I
Type: cell-based
Conditions: 72 hours, read-out: CELL BIO ABL T315I BAF3 XTT (IC50)
Protocol: MV4-11 and THP cells were maintained in Iscove's Modified Dulbecco's Medium supplemented with 10% fetal bovine serum (FBS) and penicillin/streptomycin, Ba/F3 cells were maintained in RPMI 1640 supplemented with 10% FBS, penicillin/streptomycin and 5 ng/ml recombinant mouse IL-3. Compounds were tested in the following assays in duplicate. […]
GI50 listing for selected compounds.

Some compounds with known GI50 results, for comparison:
Enquiry: Observed GI50 on ABL T315I BAF3 cells (Homo sapiens, UniProt P00519, T315I, cells depend on it) for CN(C)C(=O)C(O)c1cncc(-c2cnc3[nH]cc(-c4cccc(F)c4F)c3c2Cl)c1 (stereo not drawn) , please.
Return: 100 to 1000 nM

Enquiry: Recorded GI50 for CN(C)C(=O)c1cc(-c2cnc3[nH]cc(-c4cccc(F)c4F)c3c2Cl)cnc1N with ABL T315I BAF3 cells (Homo sapiens, UniProt P00519, T315I, cells depend on it), please?
Return: 100 to 1000 nM

---
Enquiry: Query for ABL T315I BAF3 cells (Homo sapiens, UniProt P00519, T315I, cells depend on it): what GI50 does the record show for CN(C)C(=O)c1nc(-c2cnc3[nH]cc(-c4ccc(F)cc4)c3c2Cl)cnc1N ?
Return: 100 to 1000 nM

Enquiry: Tell me reported GI50 for CN(C)C(=O)c1cc(-c2cnc3[nH]cc(-c4cc(F)ccc4F)c3c2Cl)cnc1N , tested with ABL T315I BAF3 cells (Homo sapiens, UniProt P00519, T315I, cells depend on it).
Return: 100 to 1000 nM

Enquiry: Quick check: GI50 on ABL T315I BAF3 cells (Homo sapiens, UniProt P00519, T315I, cells depend on it), item CN(C)C(=O)C(=O)c1cncc(-c2cnc3[nH]cc(-c4cccc(F)c4F)c3c2Cl)c1 ?
Return: > 1000 nM

Enquiry: I'm curious: which GI50 was measured for COc1ccccc1-c1c[nH]c2ncc(-c3cncc(C(O)C(=O)N(C)C)c3)c(OC)c12 (stereo not drawn) tested on ABL T315I BAF3 cells (Homo sapiens, UniProt P00519, T315I, cells depend on it)?
Return: 10 to 100 nM

Enquiry: Which measured GI50 belongs to OC(c1cncc(-c2cnc3[nH]cc(-c4ccccc4F)c3c2Cl)c1)c1ncco1 (stereo not drawn) , tested on ABL T315I BAF3 cells (Homo sapiens, UniProt P00519, T315I, cells depend on it)?
Return: 100 to 1000 nM

Enquiry: Hi! What's the reported GI50 for CN(C)C(=O)C(O)c1cncc(-c2cnc3[nH]cc(-c4ccc(F)cc4)c3c2Cl)c1 (stereo not drawn) on ABL T315I BAF3 cells (Homo sapiens, UniProt P00519, T315I, cells depend on it)?
Return: > 1000 nM

Enquiry: Under ABL T315I BAF3 cells (Homo sapiens, UniProt P00519, T315I, cells depend on it): GI50 value of COc1cc(F)c(F)cc1-c1c[nH]c2ncc(-c3cnc(N)c(C(=O)N(C)C)c3)c(Cl)c12 ?
Return: 10 to 100 nM

Cited source: patent US8158647B2
